# Test system: HIF-2α HIS TAG-PASB Domain
# METHOD_NOTES: HIF-2α Scintillation Proximity Assay (SPA)
# Type: binding
pIC50: −log10 of the molar value.
Values of pIC50 greater than or equal to 7 map to MET; values below map to NOT MET.

In [3]: df
Out[3]:
                                   compound  classification
0  CS(=N)(=O)c1ccc(Oc2cc(F)cc(Cl)c2)c(C#N)c1Cl (stereo not shown)         NOT MET
1  CCOC(=O)/C=C/c1c(S(=O)(=O)C(F)(F)F)ccc(Oc2cc(F)cc(C#N)c2)c1C         NOT MET
2  C=CCN=S(=O)(c1ccc(Oc2cc(F)cc(C#N)c2)c2c1[C@H](O)C(F)(F)C2)C(F)(F)F (single isomer, unassigned) [Compound 307]         NOT MET
3  CC(C)(C)OC(=O)NCc1c(S(=O)(=O)C(F)F)ccc(Oc2cc(F)cc(Cl)c2)c1Br         NOT MET
4  O=S(=O)(c1ccc(Oc2cc(F)cc(Cl)c2)c(Cl)c1CNCCF)C(F)(F)F         NOT MET
5  CS(=O)(=O)c1ccc(Oc2cncc(C#N)c2)c2c1[C@H](O)C(F)(F)[C@@H]2F             MET
6  N#Cc1cc(F)cc(Oc2ccc(S(=N)(=O)C(F)(F)F)c3c2CC(F)(F)[C@H]3O)c1 (single isomer, unassigned) [Example 306]             MET

----------
Entries and their log10(IC50) values follow.
# Tested on: HIF-2α HIS TAG-PASB Domain
# METHOD_NOTES: HIF-2α Scintillation Proximity Assay (SPA)
# Assay type: binding
MEASURE_NAME: log10(IC50) (log10 of the value in nM)

                                    compound            target_or_system  measure_name  number
 0  CS(=O)(=O)c1ccc(Oc2cncc(Br)c2)c2c1[C@H](O)[C@H](F)[C@@H]2F [Compound 328]  HIF-2α HIS TAG-PASB Domain   log10(IC50)    1.51
 1  O=Cc1cc(S(=O)(=O)C(F)(F)F)ccc1Oc1cc(F)cc(Cl)c1 [Compound 123]  HIF-2α HIS TAG-PASB Domain   log10(IC50)    1.51
 2  N#Cc1cc(F)cc(Oc2ccc(S(=O)(=O)C(F)F)cc2Br)c1 [Compound 132]  HIF-2α HIS TAG-PASB Domain   log10(IC50)    2.49
 3  CS(=O)(=O)c1ccc(Oc2cc(F)cc(C#N)c2)c2c1[C@H](O)[C@H](F)[C@@H]2O [Compound 296]  HIF-2α HIS TAG-PASB Domain   log10(IC50)    3.11
 4  Cc1cc(Oc2cc(F)cc(C#N)c2)c2c(c1S(C)(=O)=O)C(O)C(F)(F)C2 (stereo not drawn) [Compound 213]  HIF-2α HIS TAG-PASB Domain   log10(IC50)    2.90
 5  N#Cc1cc(F)cc(Oc2ccc(S(=O)(=O)C(F)(F)F)cc2C#N)c1 [Compound 120]  HIF-2α HIS TAG-PASB Domain   log10(IC50)    2.53
 6  N#Cc1cc(S(=N)(=O)C(F)(F)F)ccc1Oc1cc(F)cc(Cl)c1 (stereo not drawn) [Compound 72]  HIF-2α HIS TAG-PASB Domain   log10(IC50)    2.71
 7  Cc1nnc(/C=C/c2c(S(=O)(=O)C(F)(F)F)ccc(Oc3cc(F)cc(C#N)c3)c2C)o1 [Compound 151]  HIF-2α HIS TAG-PASB Domain   log10(IC50)    3.04
 8  O=S(=O)(c1ccc(Oc2cccc(C(F)(F)F)c2)c(Br)c1CO)C(F)F [Compound 89]  HIF-2α HIS TAG-PASB Domain   log10(IC50)    3.15
 9  CS(=O)(=O)c1ccc(Oc2cc(F)cc(C#N)c2)c2c1[C@H](O)C(F)(F)[C@H]2F [Compound 293]  HIF-2α HIS TAG-PASB Domain   log10(IC50)    2.86
10  O=S(=O)(c1ccc(Oc2cc(F)cc(Cl)c2)c(Br)c1CNCc1ccccc1)C(F)(F)F [Compound 110]  HIF-2α HIS TAG-PASB Domain   log10(IC50)    3.20
11  CS(=O)(=NC#N)c1ccc(Oc2cc(F)cc(C#N)c2)c2c1[C@H](O)C(F)(F)C2 (stereo partly drawn) [Example 240]  HIF-2α HIS TAG-PASB Domain   log10(IC50)    1.41
12  O=S(=O)(c1ccc(Oc2cc(F)cc(Cl)c2)c(CO)c1)C(F)(F)F [Compound 122]  HIF-2α HIS TAG-PASB Domain   log10(IC50)    3.23
13  Cc1cc(C)cc(Oc2ccc(S(=O)(=O)C(F)(F)F)cc2Br)c1 [Compound 173]  HIF-2α HIS TAG-PASB Domain   log10(IC50)    3.30
14  CC1(O)c2c(S(=O)(=O)C(F)F)ccc(Oc3cc(F)cc(C#N)c3)c2CC1(F)F (stereo not drawn) [Compound 13]  HIF-2α HIS TAG-PASB Domain   log10(IC50)    3.82
15  C[C@@H]1Cc2c(Oc3cc(F)cc(C#N)c3)ccc(S(C)(=O)=O)c2[C@@H]1O [Compound 301]  HIF-2α HIS TAG-PASB Domain   log10(IC50)    3.28
16  O=S(=O)(c1ccc(Oc2ccc(F)cc2)c2c1[C@H](O)C(F)(F)C2)C(F)(F)F [Example 230]  HIF-2α HIS TAG-PASB Domain   log10(IC50)    1.45
17  N#Cc1cc(F)cc(Oc2ccc(S(N)(=O)=O)c3c2[C@@H](O)C(F)(F)[C@H]3O)c1 [Compound 337]  HIF-2α HIS TAG-PASB Domain   log10(IC50)    3.56
18  N#Cc1c(S(=O)(=O)C(F)(F)F)ccc(Oc2cc(F)cc(Cl)c2)c1Cl [Compound 111]  HIF-2α HIS TAG-PASB Domain   log10(IC50)    1.18
19  O=S(=O)(c1ccc(Oc2c(F)ccc3[nH]ncc23)c2c1C(O)C(F)(F)C2)C(F)(F)F (stereo not drawn) [Compound 244]  HIF-2α HIS TAG-PASB Domain   log10(IC50)    3.00
20  O=Cc1c(S(=O)(=O)C(F)(F)F)ccc(Oc2cc(F)cc(Cl)c2)c1Cl [Compound 112]  HIF-2α HIS TAG-PASB Domain   log10(IC50)    1.60
21  O=S(=O)(c1ccc(Oc2cc(F)cc(Cl)c2)c(Cl)c1CNC1CCOCC1)C(F)F [Compound 48]  HIF-2α HIS TAG-PASB Domain   log10(IC50)    2.96
22  O=S(=O)(c1ccc(Oc2cc(F)cc(Cl)c2)c(Br)c1)C(F)(F)F [Compound 116]  HIF-2α HIS TAG-PASB Domain   log10(IC50)    2.18
23  O=S(=O)(c1ccc(Oc2cc(Cl)cc(Cl)c2)c(Br)c1)C(F)(F)F [Compound 172]  HIF-2α HIS TAG-PASB Domain   log10(IC50)    2.49
24  O=S(=O)(c1ccc(Oc2cncc(F)c2)c2c1[C@H](O)CC2)C(F)F [Compound 5]  HIF-2α HIS TAG-PASB Domain   log10(IC50)    2.95
25  CS(=O)(=O)c1ccc(Oc2cc(F)cc(C#N)c2)c2c1C(O)CCC2 (stereo not drawn) [Compound 95]  HIF-2α HIS TAG-PASB Domain   log10(IC50)    3.56
26  Cc1c(Cl)cccc1Oc1ccc(S(=O)(=O)C(F)(F)F)cc1Br [Compound 171]  HIF-2α HIS TAG-PASB Domain   log10(IC50)    3.08
27  CCS(=O)(=O)c1ccc(Oc2cc(F)cc(Cl)c2)c2c1C(O)CC2 (stereo not drawn) [Compound 91]  HIF-2α HIS TAG-PASB Domain   log10(IC50)    2.45
28  CS(=O)(=NC#N)c1ccc(Oc2cc(F)cc(F)c2)c2c1C(O)CC2 (stereo not drawn) [Compound 189]  HIF-2α HIS TAG-PASB Domain   log10(IC50)    3.51
29  Cc1c(Oc2cc(F)cc(Cl)c2)ccc(S(=O)(=O)C(F)(F)F)c1Cl [Compound 143]  HIF-2α HIS TAG-PASB Domain   log10(IC50)    1.30
30  O=S(=O)(c1ccc(Oc2cc(F)cc(Cl)c2)c(Cl)c1CNCC(F)(F)F)C(F)F [Compound 47]  HIF-2α HIS TAG-PASB Domain   log10(IC50)    3.95
31  N#Cc1cc(F)cc(Oc2ccc(S(=O)(=O)C(F)F)c(C#N)c2Br)c1 [Compound 77]  HIF-2α HIS TAG-PASB Domain   log10(IC50)    3.28
32  C=C1CC(O)c2c(S(C)(=O)=O)ccc(Oc3cc(F)cc(Cl)c3)c21 (stereo not drawn) [Compound 280]  HIF-2α HIS TAG-PASB Domain   log10(IC50)    3.53
